# system-under-test: TLR8 (Homo sapiens, UniProt Q9NR97)
# Sequence (Q9NR97 27-1041): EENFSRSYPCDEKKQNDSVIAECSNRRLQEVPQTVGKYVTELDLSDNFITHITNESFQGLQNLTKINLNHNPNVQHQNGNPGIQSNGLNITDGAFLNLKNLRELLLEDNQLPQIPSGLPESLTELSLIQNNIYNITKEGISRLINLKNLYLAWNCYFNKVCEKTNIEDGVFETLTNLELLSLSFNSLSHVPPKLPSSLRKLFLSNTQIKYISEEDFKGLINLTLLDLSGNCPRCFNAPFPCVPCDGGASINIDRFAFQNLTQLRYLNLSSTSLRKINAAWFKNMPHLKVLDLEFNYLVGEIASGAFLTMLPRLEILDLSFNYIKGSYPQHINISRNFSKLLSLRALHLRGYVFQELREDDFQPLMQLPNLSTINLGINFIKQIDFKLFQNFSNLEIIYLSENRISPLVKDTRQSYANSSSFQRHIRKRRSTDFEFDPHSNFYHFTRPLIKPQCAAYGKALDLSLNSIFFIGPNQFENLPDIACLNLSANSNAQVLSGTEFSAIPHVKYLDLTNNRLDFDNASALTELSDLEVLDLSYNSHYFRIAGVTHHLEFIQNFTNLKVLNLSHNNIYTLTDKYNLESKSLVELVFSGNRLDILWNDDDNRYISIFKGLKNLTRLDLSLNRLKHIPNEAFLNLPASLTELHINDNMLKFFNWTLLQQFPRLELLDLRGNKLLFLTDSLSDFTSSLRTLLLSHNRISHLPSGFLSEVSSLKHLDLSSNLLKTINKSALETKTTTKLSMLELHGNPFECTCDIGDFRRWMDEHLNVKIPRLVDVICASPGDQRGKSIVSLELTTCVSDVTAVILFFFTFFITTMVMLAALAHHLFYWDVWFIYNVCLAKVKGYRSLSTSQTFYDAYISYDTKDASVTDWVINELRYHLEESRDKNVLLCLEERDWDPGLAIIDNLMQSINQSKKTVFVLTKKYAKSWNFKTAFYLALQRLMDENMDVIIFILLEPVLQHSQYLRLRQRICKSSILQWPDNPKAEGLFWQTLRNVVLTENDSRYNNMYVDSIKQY
# test-name: HEK/293 TLR8 Cell Assay
# run-conditions: HEK cells, R848 agonist 30 uM final concentration, Steady-Glo readout; read-out: TLR8 potency
Consider the following molecules and their measured IC50 readings.

Example results:
molecule	IC50
N#Cc1ccc(N2C[C@@H](C(F)(F)F)O[C@@H](C(=O)NC[C@@H](O)CO)C2)c2nccnc12 (single isomer, unassigned)	> 150 nM
CC(C(=O)N[C@@H]1C[C@H](C(F)(F)F)CN(c2ccc(C(F)(F)F)c3ncccc23)C1)N1CCN(C)CC1 (single isomer, unassigned)	< 75 nM
C[C@H]1C[C@@H](NCC(=O)N2CC(O)C2)CN(c2ccc(C(F)(F)F)c3ncccc23)C1	< 75 nM
C[C@H]1C[C@@H](NCCC2CS(=O)(=O)C2)CN(c2ccc(C#N)c3nccnc23)C1	< 75 nM
N#Cc1ccc(N2C[C@@H](C(F)(F)F)O[C@@H](C(=O)NC[C@@]3(F)CCNC3)C2)c2nccnc12 (single isomer, unassigned)	< 75 nM
C[C@H]1C[C@@H](NS(=O)(=O)NC(=O)CC2CCN(C)CC2)CN(c2ccc(C(F)(F)F)c3ncccc23)C1	< 75 nM
C[C@H]1C[C@@H](NC(=O)[C@@H](N)C(C)(C)O)CN(c2ccc(C#N)c3nccnc23)C1	< 75 nM
C[C@H]1C[C@@H](NCCCS(N)(=O)=O)CN(c2ccc(C#N)c3nccnc23)C1	< 75 nM
C[C@@H]1CN(c2cnc(C#N)c3ncccc23)C[C@H](CNCC2(F)CCOCC2)O1	> 150 nM
O=C(N[C@@H]1C[C@H](C(F)(F)F)CN(c2ccc(C(F)(F)F)c3ncccc23)C1)[C@@H]1CCCN1	< 75 nM

Noted for N#Cc1ccc(N2C[C@H](CN3CC(O)C3)O[C@H](C(F)(F)F)C2)c2nccnc12 (single isomer, unassigned) : its IC50 reads 75 to 150 nM

Item: Cc1c(F)cc(N2C[C@H](NC(=O)CC3C4CC3CN(C)C4)C[C@H](C(F)(F)F)C2)c2cccnc12 (some centres unmarked) | IC50: < 75 nM

Looking up C[C@H]1C[C@@H](NC(=O)CC2CS(=O)(=O)C2)CN(c2ccc(C#N)c3nccnc23)C1 , I found its IC50 recorded as 75 to 150 nM

The reported IC50 of the molecule C[C@H]1C[C@@H](NC(=O)CN(CCN)CCO)CN(c2ccc(C#N)c3nccnc23)C1 was < 75 nM

Where do these numbers come from? They come from patent US20210300940A1.
